Biological target: Ba/F3-FGFR4-transfected cells (Homo sapiens)
Sequence (P22455 whole entry, change not shown): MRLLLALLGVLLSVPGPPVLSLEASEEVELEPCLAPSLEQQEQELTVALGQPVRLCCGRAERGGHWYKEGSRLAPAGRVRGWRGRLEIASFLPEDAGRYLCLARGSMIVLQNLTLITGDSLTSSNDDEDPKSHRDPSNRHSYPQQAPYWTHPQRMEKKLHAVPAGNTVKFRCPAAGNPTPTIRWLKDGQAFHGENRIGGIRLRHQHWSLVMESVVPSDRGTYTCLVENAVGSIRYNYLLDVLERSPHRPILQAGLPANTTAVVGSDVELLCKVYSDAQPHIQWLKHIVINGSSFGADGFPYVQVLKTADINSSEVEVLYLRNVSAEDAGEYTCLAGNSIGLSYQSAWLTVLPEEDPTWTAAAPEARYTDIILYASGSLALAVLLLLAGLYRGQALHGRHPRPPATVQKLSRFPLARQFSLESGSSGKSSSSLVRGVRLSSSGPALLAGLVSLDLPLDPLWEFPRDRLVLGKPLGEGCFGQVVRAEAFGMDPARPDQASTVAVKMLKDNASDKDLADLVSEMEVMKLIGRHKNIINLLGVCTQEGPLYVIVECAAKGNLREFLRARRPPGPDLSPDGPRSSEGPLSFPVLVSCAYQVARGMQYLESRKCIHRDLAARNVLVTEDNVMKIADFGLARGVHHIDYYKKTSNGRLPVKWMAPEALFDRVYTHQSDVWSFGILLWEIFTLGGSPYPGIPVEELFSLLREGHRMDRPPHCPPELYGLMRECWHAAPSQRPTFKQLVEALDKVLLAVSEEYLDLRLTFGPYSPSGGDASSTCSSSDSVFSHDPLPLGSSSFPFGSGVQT
Test: Ba/F3-FGFR4 cellular proliferation assay, Alamar Blue
Type: cell-based
READOUT TYPE: BAF3-FGFR4 pIC50

[[record]]
input_smiles = "COc1cc(OC)cc(N(CCCNCC(F)(F)F)c2ccc3ncc(-c4ccc(N(C)C(=O)OC(C)(C)C)nc4)nc3c2)c1"
readout_type = "BAF3-FGFR4 pIC50"
limit_qualifier = "<"
numeric_value = 5

[[record]]
input_smiles = "COc1cc(OC)cc(N(CC2CC2)c2ccc3ncc(-c4cnnn4C)nc3c2)c1"
readout_type = "BAF3-FGFR4 pIC50"
limit_qualifier = "<"
numeric_value = 5

[[record]]
input_smiles = "COc1cc(OC)cc(N(CCCO)c2ccc3ncc(-c4ccnc(C(=O)NCCCN)c4)nc3c2)c1"
readout_type = "BAF3-FGFR4 pIC50"
limit_qualifier = "="
numeric_value = 5.2

[[record]]
input_smiles = "CNc1ccc(-c2cnc3ccc(N(CCCNCC(F)(F)F)c4cc(OC)cc(OC)c4)cc3n2)cn1"
readout_type = "BAF3-FGFR4 pIC50"
limit_qualifier = "="
numeric_value = 5.4

[[record]]
input_smiles = "COc1cc(OC)cc(N(CCNC(C)C)c2ccc3ncc(NCC4CCNCC4)nc3c2)c1"
readout_type = "BAF3-FGFR4 pIC50"
limit_qualifier = "<"
numeric_value = 5

